Target: hTRPC5 S495A (Homo sapiens, UniProt Q9UL62, S495A)
Construct: We use full-length nontagged hTRPC5 construct for FLIPR assay unless indicated otherwise; expressed in transfected cells; host or cells: AD293
Sequence (Q9UL62 1-973 S495A): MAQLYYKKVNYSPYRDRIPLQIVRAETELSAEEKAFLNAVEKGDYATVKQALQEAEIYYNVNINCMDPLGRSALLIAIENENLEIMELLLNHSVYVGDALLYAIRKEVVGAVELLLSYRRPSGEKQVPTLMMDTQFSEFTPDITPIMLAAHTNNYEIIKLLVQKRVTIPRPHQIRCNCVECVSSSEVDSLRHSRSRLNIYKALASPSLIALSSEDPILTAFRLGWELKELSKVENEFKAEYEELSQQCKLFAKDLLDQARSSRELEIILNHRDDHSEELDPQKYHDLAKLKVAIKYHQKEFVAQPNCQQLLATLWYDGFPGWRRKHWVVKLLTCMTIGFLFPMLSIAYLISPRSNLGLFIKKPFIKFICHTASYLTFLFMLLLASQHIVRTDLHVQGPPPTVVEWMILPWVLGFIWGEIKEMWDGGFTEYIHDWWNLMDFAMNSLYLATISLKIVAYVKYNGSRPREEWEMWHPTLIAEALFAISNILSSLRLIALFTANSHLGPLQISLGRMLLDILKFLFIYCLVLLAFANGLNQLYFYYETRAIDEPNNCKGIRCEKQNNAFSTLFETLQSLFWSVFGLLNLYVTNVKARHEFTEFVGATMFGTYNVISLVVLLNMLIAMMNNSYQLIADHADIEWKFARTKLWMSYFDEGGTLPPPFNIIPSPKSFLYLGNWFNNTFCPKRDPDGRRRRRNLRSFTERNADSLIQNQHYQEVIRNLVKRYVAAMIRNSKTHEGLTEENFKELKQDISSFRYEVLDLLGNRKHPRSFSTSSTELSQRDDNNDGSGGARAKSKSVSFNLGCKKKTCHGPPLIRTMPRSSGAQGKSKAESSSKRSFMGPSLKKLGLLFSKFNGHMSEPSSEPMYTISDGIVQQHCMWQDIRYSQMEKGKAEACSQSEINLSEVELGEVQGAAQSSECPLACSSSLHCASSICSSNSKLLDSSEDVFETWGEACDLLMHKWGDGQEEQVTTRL
Experiment: FLIPR calcium assay, hTRPC5 mutant S495A
Assay type: cell-based
Details: CMZ; 14 mM extracellular calcium; read-out: IC50
measured endpoint: IC50 (µM)
Answers are plain numbers, in µM.

In: I have this compound here, Clc1ccc(Cn2c(CN3CCCC3)nc3ccccc32)cc1 [CMZ, clemizole] , and I need its recorded IC50.
Out: 3.03

###

Molecular target: hTRPC5 WT (Homo sapiens)
Construct: We use full-length nontagged hTRPC5 construct for FLIPR assay unless indicated otherwise; expressed in transfected cells; host or cells: AD293
Test: FLIPR calcium assay, inhibition of extracellular calcium-induced intracellular calcium increase
Format: cell-based
Settings: CMZ; 14 mM extracellular calcium; read-out: IC50
measured endpoint: pIC50
Give bare numbers, as −log10 of the molar value.

In: I have this molecule here, Clc1ccc(Cn2c(CN3CCCC3)nc3ccccc32)cc1 , and I need its recorded pIC50.
Out: 5.51

###

Target: hTRPC5 N443L (Homo sapiens, UniProt Q9UL62, N443L)
Construct: We use full-length nontagged hTRPC5 construct for FLIPR assay unless indicated otherwise; expressed in transfected cells; host or cells: AD293
Sequence (Q9UL62 1-973 N443L): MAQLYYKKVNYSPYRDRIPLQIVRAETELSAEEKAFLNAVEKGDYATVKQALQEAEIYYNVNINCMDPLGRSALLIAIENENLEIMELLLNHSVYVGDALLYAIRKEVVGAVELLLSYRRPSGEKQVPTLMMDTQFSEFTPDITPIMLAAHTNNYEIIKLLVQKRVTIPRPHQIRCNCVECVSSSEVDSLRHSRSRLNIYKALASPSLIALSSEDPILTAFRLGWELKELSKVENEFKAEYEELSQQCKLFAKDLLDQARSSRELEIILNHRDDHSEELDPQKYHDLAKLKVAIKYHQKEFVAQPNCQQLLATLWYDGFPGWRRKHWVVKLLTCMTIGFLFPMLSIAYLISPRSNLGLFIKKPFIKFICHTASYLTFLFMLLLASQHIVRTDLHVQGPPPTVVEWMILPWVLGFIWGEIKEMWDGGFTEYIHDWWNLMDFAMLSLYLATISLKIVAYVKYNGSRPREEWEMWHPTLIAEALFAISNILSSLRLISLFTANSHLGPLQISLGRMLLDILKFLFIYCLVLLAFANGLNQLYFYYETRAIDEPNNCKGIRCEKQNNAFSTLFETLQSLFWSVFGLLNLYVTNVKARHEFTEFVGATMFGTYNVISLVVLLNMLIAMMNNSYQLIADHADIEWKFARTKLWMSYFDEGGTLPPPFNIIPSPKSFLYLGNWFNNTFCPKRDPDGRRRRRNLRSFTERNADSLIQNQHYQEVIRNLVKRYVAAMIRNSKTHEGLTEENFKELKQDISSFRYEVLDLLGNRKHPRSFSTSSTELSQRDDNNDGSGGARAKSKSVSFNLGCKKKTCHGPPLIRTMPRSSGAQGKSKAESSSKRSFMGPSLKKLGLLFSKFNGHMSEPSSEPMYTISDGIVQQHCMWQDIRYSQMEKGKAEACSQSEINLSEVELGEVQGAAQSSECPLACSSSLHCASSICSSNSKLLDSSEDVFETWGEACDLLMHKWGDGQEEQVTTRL
Experiment: FLIPR calcium assay, hTRPC5 mutant N443L
Format: cell-based
Conditions: CMZ; 14 mM extracellular calcium; read-out: IC50
measured endpoint: IC50
The reply must contain the numeric value and, after it, the unit.

In: // map Clc1ccc(Cn2c(CN3CCCC3)nc3ccccc32)cc1 [CMZ, clemizole] to recorded IC50 (system: hTRPC5 N443L (Homo sapiens, UniProt Q9UL62, N443L))
Out: 10.4 µM

Reference source for all entries: paper PMC7987348
